Below, each of the binders is paired with its reported PAR-2 β-arrestin cell based assay IC50, 2 µM SLIGKV value.
system: T1, human PAR-2 (human, UniProt P55085 26-397)
T1 sequence: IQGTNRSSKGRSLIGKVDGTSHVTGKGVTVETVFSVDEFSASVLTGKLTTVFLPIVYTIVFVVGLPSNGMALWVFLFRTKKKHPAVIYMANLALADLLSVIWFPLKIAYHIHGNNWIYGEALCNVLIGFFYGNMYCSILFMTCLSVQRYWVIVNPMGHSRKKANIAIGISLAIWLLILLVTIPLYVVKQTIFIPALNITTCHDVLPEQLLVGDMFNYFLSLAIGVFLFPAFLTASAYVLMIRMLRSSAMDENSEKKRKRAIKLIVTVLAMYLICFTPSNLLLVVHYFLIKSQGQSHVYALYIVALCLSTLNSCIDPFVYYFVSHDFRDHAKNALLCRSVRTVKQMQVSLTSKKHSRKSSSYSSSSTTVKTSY
method-notes: cell-based or functional assay
Please respond with the number in nM and leave the unit unwritten.

Answered cases to consult:
• P24E301 (antibody, human IgG4 S228P, kappa, V domains shown) VH: QVQLVQSGAEVKKPGSSVKVSCKASGFSLSSYAISWVRQAPGQGLEWMGVIWGNGNTYYAQKFQGRVTITADESTSTAYMELSSLRSEDTAVYYCARWKGYKDYPFDYWGQGTLVTVSS VL: EIVLTQSPATLSLSPGERATLSCKASQNIYKWLDWYQQKPGQAPRLLIYNTNSLATGIPARFSGSGSGRDFTLTISSLEPEDFAVYYCLQHNSGWTFGGGTKVEIKR = 1.48
• P24E288 (antibody, human IgG4 S228P, kappa, V domains shown) VH: QVQLVQSGAEVKKPGSSVKVSCKASGFSLNSYGIIWVRQAPGQGLEWMGVIWGNGNTYYAQKFQGRVTITADESTSTAYMELSSLRSEDTAVYYCARWRGYKDYPFDYWGQGTLVTVSS VL: EIVLTQSPATLSLSPGERATLSCKASQNIYKYLDWYQQKPGQAPRLLIYNTNSLATGIPARFSGSGSGRDFTLTISSLEPEDFAVYYCLQHNSGWTFGGGTKVEIKR = 1.4
• P24E1099 (antibody, human IgG4 S228P, kappa, V domains shown) VH: QVQLVQSGAEVKKPGSSVKVSCKASGFSLSSYAISWVRQAPGQGLEWMGVIWGNQNVYYAQKFQGRVTITADESTSTAYMELSSLRSEDTAVYYCARWKGYKDYPFDYWGQGTLVTVSS VL: EIVLTQSPATLSLSPGERATLSCRASQNVYKWLDWYQQKPGQAPRLLIYNANSRATGIPARFSGSGSGRDFTLTISSLEPEDFAVYYCQQHHSGWTFGGGTKVEIKR = 1.37

Lab note: next binder to report on.
Returns the measured PAR-2 β-arrestin cell based assay IC50, 2 µM SLIGKV for the input binder. Input: P24E296 (antibody, human IgG4 S228P, kappa, V domains shown) VH: QVQLVQSGAEVKKPGSSVKVSCKASGFSLNSYAISWVRQAPGQGLEWMGVIWGNGNTYYAQKFQGRVTITADESTSTAYMELSSLRSEDTAVYYCARWRGYKDYPFDYWGQGTLVTVSS VL: EIVLTQSPATLSLSPGERATLSCKASQNIYKYLDWYQQKPGQAPRLLIYNANSLATGIPARFSGSGSGRDFTLTISSLEPEDFAVYYCLQHNSGWTFGGGTKVEIKR 2.4

Data provenance: patent US20220056125A1
